Source: paper PMC10419185

# Test description: in vivo
# Test parameters: male, golden, hamster, po, 100 mg/kg
Where a name gives a salt, the structure may show the parent alone.
Reported endpoint: Tmax

# Compound, Result
rows = [
    ("Cc1cn(-c2cc(NC(=O)c3ccc(C)c(Nc4nccc(-c5cnccn5)n4)c3)cc(C(F)(F)F)c2)cn1 [radotinib, Radotinib hydrochloride]", "6 h"),
]

---

# Test description: in vivo
# Test parameters: male, golden, hamster, 100 mg/kg, B/P ratio (%), AUClast
Structures can show the parent of a compound that is named as a salt.

# Compound, Kp
rows = [
    ("Cc1cn(-c2cc(NC(=O)c3ccc(C)c(Nc4nccc(-c5cnccn5)n4)c3)cc(C(F)(F)F)c2)cn1 [radotinib, Radotinib hydrochloride]", 0.232),
]

---

# Test description: in vivo
# Test parameters: male, golden, hamster, po, 60 mg/kg, T1/2
Where a name gives a salt, the structure may show the parent alone.

# Compound, half-life [h]
rows = [
    ("Cc1cn(-c2cc(NC(=O)c3ccc(C)c(Nc4nccc(-c5cccnc5)n4)c3)cc(C(F)(F)F)c2)cn1 [nilotinib, nilotinib hydrochloride monohydrate]", 1),
]

---

# Test description: in vivo
# Test parameters: male, golden, hamster, 60 mg/kg, B/P ratio (%), Cmax
Where a name gives a salt, the structure may show the parent alone.
Reported endpoint: Kp

# Compound, Reported endpoint, Result
measured = [
    ("Cc1cn(-c2cc(NC(=O)c3ccc(C)c(Nc4nccc(-c5cnccn5)n4)c3)cc(C(F)(F)F)c2)cn1 [radotinib, Radotinib hydrochloride]", "Kp", 0.137),
]
